# assayed-target: hERG (Kv11.1, KCNH2) (Homo sapiens, UniProt Q12809)
# Sequence (Q12809 whole entry): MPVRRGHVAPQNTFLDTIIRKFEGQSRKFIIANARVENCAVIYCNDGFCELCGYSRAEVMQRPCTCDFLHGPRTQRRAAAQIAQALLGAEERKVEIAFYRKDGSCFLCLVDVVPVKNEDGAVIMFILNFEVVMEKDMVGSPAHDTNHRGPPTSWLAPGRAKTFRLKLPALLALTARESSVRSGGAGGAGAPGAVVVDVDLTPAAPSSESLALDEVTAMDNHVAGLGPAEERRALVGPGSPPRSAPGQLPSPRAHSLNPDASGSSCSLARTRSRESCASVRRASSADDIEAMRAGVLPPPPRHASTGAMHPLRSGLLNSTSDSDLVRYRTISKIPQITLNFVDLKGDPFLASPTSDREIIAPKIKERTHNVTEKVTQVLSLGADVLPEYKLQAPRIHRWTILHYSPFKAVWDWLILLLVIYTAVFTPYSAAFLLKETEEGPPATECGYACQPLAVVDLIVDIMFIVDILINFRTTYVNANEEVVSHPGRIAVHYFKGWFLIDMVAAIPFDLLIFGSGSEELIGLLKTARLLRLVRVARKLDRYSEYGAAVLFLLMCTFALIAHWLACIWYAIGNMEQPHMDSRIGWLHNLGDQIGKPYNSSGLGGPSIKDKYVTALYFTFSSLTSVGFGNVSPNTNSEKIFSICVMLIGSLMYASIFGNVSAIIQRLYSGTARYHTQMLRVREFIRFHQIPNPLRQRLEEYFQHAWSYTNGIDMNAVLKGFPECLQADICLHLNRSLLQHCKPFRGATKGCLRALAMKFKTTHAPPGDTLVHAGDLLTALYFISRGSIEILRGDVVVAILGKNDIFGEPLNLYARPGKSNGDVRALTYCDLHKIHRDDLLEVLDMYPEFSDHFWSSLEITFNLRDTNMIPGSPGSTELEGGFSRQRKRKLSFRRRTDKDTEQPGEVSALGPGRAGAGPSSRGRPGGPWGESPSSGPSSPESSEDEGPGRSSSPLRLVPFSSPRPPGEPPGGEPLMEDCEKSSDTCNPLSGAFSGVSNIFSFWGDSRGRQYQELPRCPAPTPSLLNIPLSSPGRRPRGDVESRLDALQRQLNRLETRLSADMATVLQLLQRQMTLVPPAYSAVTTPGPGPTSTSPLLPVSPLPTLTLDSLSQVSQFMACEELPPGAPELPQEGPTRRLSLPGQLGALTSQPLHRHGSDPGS
# assay-info: in vitro
# Description: MMV: Malaria Box compounds were tested for inhibition of the human ether a go-go related gene (hERG), Kv11.1 channel, using IonWorks 384-well patch clamp electrophysiology at 1.1uM (3 independent assay plates up to 12 cells per concentration).

>  <molecule>
CCOC(=O)c1cnc2ccc(Cl)cc2c1NCCCN(C)C

>  <inhibition at 1.1 µM>
21%

$$$$
>  <molecule>
c1ccc(Cn2c(N=Nc3c(Nc4ccccc4)ccc4ccccc34)nc3ccccc32)cc1

>  <inhibition at 1.1 µM>
-2%

$$$$
>  <molecule>
CCOc1ccc(-n2cc(-c3ccccc3)c3c(SCc4cc(C)ccc4C)ncnc32)cc1

>  <inhibition at 1.1 µM>
-10%

$$$$
>  <molecule>
Cc1ccc(-c2nc3ccccc3o2)cc1NCc1cc(Cc2ccccc2)ccc1O

>  <inhibition at 1.1 µM>
11%

$$$$
>  <molecule>
COc1ccc(CCN2CCC(CN(C)Cc3cnn(-c4ccccc4)c3)CC2)cc1

>  <inhibition at 1.1 µM>
41%

$$$$
>  <molecule>
COc1cccc(NC(=O)[C@H](C(C)C)n2c(=O)[nH]c3ccccc3c2=O)c1

>  <inhibition at 1.1 µM>
2%

$$$$
>  <molecule>
COc1ccc2nc(N)nc(C)c2c1

>  <inhibition at 1.1 µM>
10%

$$$$
>  <molecule>
COc1cccc(C2(C)Nc3ccccc3-c3nc4ccccc4n32)c1 (stereo unspecified)

>  <inhibition at 1.1 µM>
10%

$$$$
>  <molecule>
COc1ccccc1CNC(=O)CCn1c(=O)[nH]c2ccsc2c1=O

>  <inhibition at 1.1 µM>
-1%

$$$$
>  <molecule>
CCCc1cc(O)c2c3c(c(=O)oc2c1)CN(C)CC3

>  <inhibition at 1.1 µM>
46%

$$$$
>  <molecule>
CCCN(CCC)CCCNC(=O)c1cc2c(-c3ccc(OC)c(OC)c3)nn(C)c2s1

>  <inhibition at 1.1 µM>
6%

$$$$
>  <molecule>
CCCCc1ccc(NS(=O)(=O)c2cc3c4c(c2)CCN4C(=O)CC3)cc1

>  <inhibition at 1.1 µM>
2%

$$$$
>  <molecule>
CCN1CCN(c2c(C(=O)c3ccccc3)cnc3cc(OC)c(OC)cc23)CC1

>  <inhibition at 1.1 µM>
36%

$$$$
>  <molecule>
COc1ccc(-c2nc3cc(Cc4ccc5[nH]c(-c6ccc(OC)cc6)nc5c4)ccc3[nH]2)cc1

>  <inhibition at 1.1 µM>
-7%

$$$$
>  <molecule>
COc1cc(-c2nc(-c3ccc(Sc4ccccc4)cc3)c(-c3ccccc3)[nH]2)cc(OC)c1O

>  <inhibition at 1.1 µM>
15%

$$$$
>  <molecule>
CC1CCCCN1CCCNC(=O)c1ccc2c(c1)sc1nc(-c3ccc(F)cc3)cn12 (stereo unspecified)

>  <inhibition at 1.1 µM>
64%

$$$$
>  <molecule>
CCCCCCOC(=O)C1=C(C)NC(=O)NC1c1ccccc1F (stereo unspecified)

>  <inhibition at 1.1 µM>
-2%

$$$$
>  <molecule>
COc1ccc2nc(C)cc(Nc3ccccc3O)c2c1

>  <inhibition at 1.1 µM>
18%

$$$$
>  <molecule>
CSC1=NC(=Nc2c(C)cccc2C)C2(CCC(C(C)(C)C)CC2)N1c1ccc(Cl)cc1 (stereo unspecified)

>  <inhibition at 1.1 µM>
-5%

$$$$
>  <molecule>
O=c1nc(C=Cc2ccc(Br)cc2)oc2ccccc12

>  <inhibition at 1.1 µM>
8%

$$$$
>  <molecule>
CCOc1ccc(-c2nonc2NC(=O)c2cccc(C)c2)cc1OCC

>  <inhibition at 1.1 µM>
-1%

$$$$
>  <molecule>
OC(CNCC1CCCO1)Cn1c2ccc(Cl)cc2c2cc(Cl)ccc21 (stereo unspecified)

>  <inhibition at 1.1 µM>
12%

$$$$
>  <molecule>
CCc1ccc(Nc2cc(C)c3ccc(O)cc3n2)cc1

>  <inhibition at 1.1 µM>
15%

$$$$
>  <molecule>
O=C(Nc1ccc(N2CCCCC2)c(Cl)c1)c1ccc(Br)o1

>  <inhibition at 1.1 µM>
-3%

$$$$
>  <molecule>
CCCCCCc1cc2cc(-c3nc4ccccc4[nH]3)c(=Nc3ccccc3C)oc2cc1O

>  <inhibition at 1.1 µM>
2%

$$$$
>  <molecule>
CCCCc1c(C)nc2c(OC)cccc2c1O

>  <inhibition at 1.1 µM>
-9%

$$$$
